System: NCI-H460 cells
Assay: cells
Type: cell-based, Human
Conditions: comparison
endpoint_name: cytotoxicity / activity for H460 cells, in words

compound_structure	measured_value
C[C@@H]1O[C@@H](O[C@H]2CC[C@@]3(C)[C@H](CC[C@@H]4[C@@H]3C[C@@H](OC(=O)C(C)(C)C)[C@]3(C)[C@@H](C5=CC(=O)OC5)CC[C@]43O)C2)CC[C@H]1O	greatly reduced activity
C[C@@H]1O[C@@H](O[C@H]2CC[C@@]3(C)[C@H](CC[C@@H]4[C@@H]3C[C@@H](OC(=O)C(C)(C)C)[C@]3(C)[C@@H](C5=CC(=O)OC5)CC[C@]43O)C2)[C@H](O)[C@H](O)[C@H]1O	greatly reduced activity

* * *

Biological target: α3β1 Na+/K+ ATPase (Homo sapiens, UniProt P13637)
Assay: Na+/K+ ATPase pump binding, α3β1 isoform (radioactive displacement assay)
Experimental: α1/2/3-Na^+/K^+ ATPase pump binding data was assessed for compounds of Table 1. Further, from the results, a strong correlation between cancer cell cytotoxicity and α1/3-Na^+/K^+ ATPase pump binding selectivity was observed (see: α-L-amiceto-mono-, di- and tri-saccharides; Scheme 1). In addition, it was observed that mono-saccharides have improved activity and α1/2/3-isoform selectivity. […]
Recorded Kd by entry
Response body: numeric value in µM, unit text excluded.

// below: answered molecules
molecule	measured_value
CC1O[C@@H](O[C@H]2CCC3(C)C(CC[C@@H]4C3CCC3(C)[C@@H](C5=CC(=O)OC5)CC[C@]43O)C2)CC[C@H]1O (stereo partly drawn) [Compound 1.5, digitoxigenin α-L-amecitopyranoside]	0.026
CC1OC(OC2C(C)OC(OC3C(C)OC(OC4CCC5(C)C(CCC6C5CCC5(C)C(C7=CC(=O)OC7)CCC65O)C4)C(O)C3O)C(O)C2O)C(O)C(O)C1O (centres unmarked)	0.345
CC1OC(OC2CCC(OC3CCC4(C)C(CCC5C4CCC4(C)C(C6=CC(=O)OC6)CCC54O)C3)OC2C)CCC1O (centres unmarked)	0.186
CC1OC(OC2CCC(OC3CCC(OC4CCC5(C)C(CCC6C5CCC5(C)C(C7=CC(=O)OC7)CCC65O)C4)OC3C)OC2C)CCC1O (centres unmarked)	0.736

Field: next molecule
Give the measured Kd of CC1O[C@@H](O[C@H]2CCC3(C)C(CC[C@@H]4C3CCC3(C)[C@@H](C5=CC(=O)OC5)CC[C@]43O)C2)C(O)C(O)[C@H]1O (stereo partly drawn) [Compound 1.2, digitoxigenin α-L-rhamnopyranoside] . 0.019

* * *

Molecular target: α2β1 Na+/K+ ATPase (Homo sapiens)
Assay: Na+/K+ ATPase pump binding, α2β1 isoform (radioactive displacement assay)
Recorded Kd by entry
Response body: numeric value in nM, unit text excluded.

// below: answered compounds
compound	target_system	measured_value
CC1O[C@@H](O[C@H]2CCC3(C)C(CC[C@@H]4C3CCC3(C)[C@@H](C5=CC(=O)OC5)CC[C@]43O)C2)CC[C@H]1O (stereo partly drawn) [Compound 1.5, digitoxigenin α-L-amecitopyranoside]	α2β1 Na+/K+ ATPase (Homo sapiens)	38
CC1OC(OC2C(C)OC(OC3C(C)OC(OC4CCC5(C)C(CCC6C5CCC5(C)C(C7=CC(=O)OC7)CCC65O)C4)C(O)C3O)C(O)C2O)C(O)C(O)C1O (centres unmarked) [Compound 1.4]	α2β1 Na+/K+ ATPase (Homo sapiens)	164
CC1OC(OC2CCC(OC3CCC(OC4CCC5(C)C(CCC6C5CCC5(C)C(C7=CC(=O)OC7)CCC65O)C4)OC3C)OC2C)CCC1O (centres unmarked) [Compound 1.7]	α2β1 Na+/K+ ATPase (Homo sapiens)	149

Give the measured Kd of CC1O[C@@H](O[C@H]2CCC3(C)C(CC[C@@H]4C3CCC3(C)[C@@H](C5=CC(=O)OC5)CC[C@]43O)C2)C(O)C(O)[C@H]1O (stereo partly drawn) [Compound 1.2, digitoxigenin α-L-rhamnopyranoside] . 23

Give the measured Kd of CC1OC(OC2CCC(OC3CCC4(C)C(CCC5C4CCC4(C)C(C6=CC(=O)OC6)CCC54O)C3)OC2C)CCC1O (centres unmarked) [Compound 1.6] . 156
